Target or system Voltage-gated inwardly rectifying potassium channel KCNH2 (Homo sapiens): recorded pIC50 listed per item.
Hey, just a heads up that pIC50 is the negative log base 10 of the concentration in molar.

(Q) Under Voltage-gated inwardly rectifying potassium channel KCNH2 (Homo sapiens): pIC50 value of Cc1ncoc1-c1nnc(SCCCN[C@@H]2CC[C@]3(c4ccc(C(F)(F)F)cc4)CC23)n1C (stereo in doubt; 24) ?
(A) 6.20

(Q) Queued: Cc1nc(C)c(-c2nnc(SCCCN3CCC4CC4(c4ccc(C(F)(F)F)cc4)CC3)n2C)s1 (centres undefined)
(A) 6.20

(Q) Queued: Cc1nc(C)c(-c2nnc(SCCCN3CCC4(CCc5cc(Cl)ccc54)C3)n2C)s1 (centres undefined)
(A) 5.60

(Q) Queued: Cc1nc(C)c(-c2nnc(SCCCN3CCC4(CCc5ccc(F)cc54)C3)n2C)s1 (centres undefined)
(A) 5.20
